Data origin: PubChem BioAssay

The compounds listed here are annotated with their GFP response, % of DMSO.
test: TOR pathway CIT2 reporter hit retest – S. cerevisiae, GFP fusion, cherry picks, mother/daughter gates, confirmation (AID 2274); conditions: S. cerevisiae CIT2-GFP strain, flow cytometry, 3 h; measured here: mother cell gate; at 10 µM; stronger effect = higher value

>  <compound>
OC(CCN1CCCCC1)(c1ccccc1)c1ccccc1

>  <GFP response, % of DMSO / %>
85.8

$$$$
>  <compound>
N=c1nc(N2CCCCC2)cc(N)n1O

>  <GFP response, % of DMSO / %>
99.7

$$$$
>  <compound>
c1ccc2c(c1)CCOC2CNCCCN1CCCCC1 (stereo not drawn)

>  <GFP response, % of DMSO / %>
113

$$$$
>  <compound>
C[n+]1ccccc1/C=N/O

>  <GFP response, % of DMSO / %>
112

$$$$
>  <compound>
O=C(O)Cc1ccc(-c2ccccc2)cc1

>  <GFP response, % of DMSO / %>
103

$$$$
>  <compound>
COc1ccc(C(=O)NCC2OCCc3ccccc32)cc1 (stereo not drawn)

>  <GFP response, % of DMSO / %>
97.3

$$$$
>  <compound>
CC(=O)CSc1ncnc2c1cnn2-c1ccccc1

>  <GFP response, % of DMSO / %>
91.9

$$$$
>  <compound>
CC(NCCc1ccc(O)cc1)C(O)c1ccc(O)cc1 (stereo not drawn)

>  <GFP response, % of DMSO / %>
103

$$$$
>  <compound>
C[C@]12CC[C@H]3[C@@H](CCC4=CC(=O)CC[C@@]43C)[C@@H]1CC[C@@H]2C(=O)CO

>  <GFP response, % of DMSO / %>
91.2

$$$$
>  <compound>
O=C(NCCN1CCN(c2ccccc2)CC1)c1cccc(Br)c1

>  <GFP response, % of DMSO / %>
101

$$$$
>  <compound>
C#C[C@]1(O)CC[C@H]2[C@@H]3CCC4=CC(=O)CC[C@@H]4[C@H]3CC[C@@]21CC

>  <GFP response, % of DMSO / %>
102

$$$$
>  <compound>
COC(=O)c1ccc2nc(Nc3nc4c(F)cc(F)cc4s3)sc2c1

>  <GFP response, % of DMSO / %>
98.7

$$$$
>  <compound>
CN(C)CCCN1c2ccccc2Sc2ccc(Cl)cc21

>  <GFP response, % of DMSO / %>
107

$$$$
>  <compound>
CC(=O)[C@@]1(O)CC[C@H]2[C@@H]3CCC4=CC(=O)CC[C@]4(C)[C@H]3[C@@H](O)C[C@@]21C

>  <GFP response, % of DMSO / %>
94.5

$$$$
>  <compound>
Nc1[nH]c(=O)ncc1F

>  <GFP response, % of DMSO / %>
81.6

$$$$
>  <compound>
Cc1ccc2[nH]c3c(c2c1)CCNC3=O

>  <GFP response, % of DMSO / %>
114

$$$$
>  <compound>
CCOC(=O)N1CCN(C(=O)CCc2ccc(S(=O)(=O)NCCc3ccccc3)cc2)CC1

>  <GFP response, % of DMSO / %>
100

$$$$
>  <compound>
CC(=O)[C@H]1CC[C@H]2[C@@H]3CCC4=CC(=O)CC[C@]4(C)[C@H]3[C@H](O)C[C@]12C

>  <GFP response, % of DMSO / %>
99.1

$$$$
>  <compound>
N#C/C(C(N)=O)=c1/ccc2c(c1)N1C3=C(CCCC3)CC3CCCCC31N=2 (stereo not drawn)

>  <GFP response, % of DMSO / %>
89.3

$$$$
>  <compound>
CCS(=O)(=O)N1N=C(c2cccc(NS(C)(=O)=O)c2)CC1c1ccc(C)cc1 (stereo not drawn)

>  <GFP response, % of DMSO / %>
108

$$$$
>  <compound>
CC(=O)O[C@]1(C(C)=O)CC[C@H]2[C@@H]3C[C@H](C)C4=CC(=O)CC[C@]4(C)[C@H]3CC[C@@]21C

>  <GFP response, % of DMSO / %>
101

$$$$
>  <compound>
CCCCN(CCCC)CCCOC(=O)c1ccc(N)cc1

>  <GFP response, % of DMSO / %>
99.7

$$$$
>  <compound>
c1cnc2c(c1)ccc1cccnc12

>  <GFP response, % of DMSO / %>
107

$$$$
